# test-description: NCI Yeast Anticancer Drug Screen. Data for the cln2 rad14 strain (AID 165);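 also: 0% = growth equal to vehicle treated cultures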
# experimental-conditions: S. cerevisiae cln2 rad14 strain, at 50.0 µM, hits give high values
Compounds without any hit were thinned out: in the full panel of roughly 79,000, 15% have a hit. Active and inactive are the calls of the source. Rule as the data show it: active = growth inhibition above about 70%; inactive = the rest.
Below is a list of entries, each paired with its recorded growth inhibition value.

compound	growth inhibition
CCCCCCCCCCCCCCCCN (tested in a mixture with another compound)	-24.1% (inactive)
COC(=O)CCN(C)c1ccccc1	-8.15% (inactive)
CC(C)C(=O)Oc1cc2c(=O)oc3c(OC(=O)C(C)C)c(OC(=O)C(C)C)cc4c(=O)oc(c1OC(=O)C(C)C)c2c34	13.7% (inactive)
O=C(O)CCCC/C=C/CCCCCCC1C=CCC1 (stereo unspecified)	0.7% (inactive)
CC12CCC(C(S(=O)(=O)O)C1=O)C2(C)C (stereo unspecified) (tested in a mixture with another compound)	-5.7% (inactive)
NC(CO)C(=O)NCCS(=O)(=O)O (stereo unspecified)	22.1% (inactive)
CCOC(=O)CN=NNc1ccc([N+](=O)[O-])cc1	-42.2% (inactive)
O=[N+]([O-])c1ccc(N/N=C2\CCC3CC23)c([N+](=O)[O-])c1 (stereo unspecified)	-1.35% (inactive)
COc1ccc(NC(=S)NN=C(C)c2cccc(C(C)=NNC(=S)Nc3ccc(OC)cc3)n2)cc1	-15.7% (inactive)
COCC/C=C/CCl	-8.95% (inactive)
CN(C)Cc1ccccc1COC(=O)c1ccc([N+](=O)[O-])cc1Cl	-29.1% (inactive)
COc1ccc(C2CCCCCC2OC(=O)c2ccc([N+](=O)[O-])cc2)c(OC)c1OC (stereo unspecified)	42.9% (inactive)
Cc1ccccc1S(=O)(=O)OC1NS(=O)(=O)c2ccccc21 (stereo unspecified)	-15.6% (inactive)
CN(C)C(SCc1c(Cl)c(Cl)c(Cl)c(Cl)c1Cl)=[N+](C)C	11.8% (inactive)
O=[N+]([O-])c1ccc(Cl)c(C(F)(F)F)c1	-2.75% (inactive)
COC12OCCN(C)C1=CC(=O)C1=NNC(C)C12 (stereo unspecified)	-27% (inactive)
O=S(O)CCCCCSSCCCCSSCCCCCS(=O)O	10.3% (inactive)
CCC1(C)OC(C)CC(C)(C)O1 (stereo unspecified)	-0.25% (inactive)
CCOC(=O)C(NC(=O)c1cccc(Cl)c1)(Nc1ccc(S(=O)(=O)Nc2cc(C)on2)cc1)C(F)(F)F (stereo unspecified)	84.7% (active)
COc1cc([N+](=O)[O-])ccc1P(=O)(O)O	-4.35% (inactive)
CCC(=O)Cc1cnccn1	-10.1% (inactive)
C=CCNCc1cc(Cl)cc(Cl)c1O	-51.1% (inactive)
COc1cc(NCCCCC2CCCCN2)c2ncccc2c1 (stereo unspecified)	-11.4% (inactive)
N#CC(C(=O)C(N)=O)c1ccccc1Cl (stereo unspecified)	-0.7% (inactive)
O=C(Nc1ccccn1)c1ccc([N+](=O)[O-])cc1	5.45% (inactive)
NC(CCC(N)C(=O)O)C(=O)O (stereo unspecified)	-13.5% (inactive)
CC(=O)c1ccc(C2CCC[C@H]2c2ccc(C(C)=O)cc2)cc1 (stereo partly specified)	-40.2% (inactive)
CCOC(=O)c1ccc(N=C2C(=S)N(c3ccc(C(=O)OCC)cc3)C(=N)N2/N=C/c2ccccc2)cc1	-4.55% (inactive)
COCCN(CCOC)C1C2=C(CCCC2)OS(=O)(=O)C1c1ccccc1 (stereo unspecified)	12.9% (inactive)
Cc1cc(NS(=O)(=O)c2ccc(Nc3c4ccccc4nc4c(C(=O)NCCN(C)C)cccc34)cc2)no1	11.9% (inactive)
Cc1ccc(C)c(NC(=O)CCC(=O)C(C#N)c2nc3ccccc3s2)c1 (stereo unspecified)	17.6% (inactive)
CSc1nc(NC2OC(CO)C(O)C(O)C2O)c(Br)c(=O)n1C (stereo unspecified)	-8.75% (inactive)
CC(C)(C)OC(=O)N/N=C(/N)Cc1ccccc1	6.5% (inactive)
COc1cc(Cc2nccc3cc(OC)c(OC)cc23)c(N=NN(C)C)cc1OC	5.45% (inactive)
O=C(NC(CCS(=O)(=O)n1ccnc1)C(=O)OCc1ccccc1)OCc1ccccc1 (stereo unspecified)	11.2% (inactive)
Cc1cc(C(=O)C(C(c2ccccc2)N2CCOCC2)N2CCOCC2)ccc1Cl (stereo unspecified)	-1.35% (inactive)
COC(=O)Cc1c(C(C)=O)[nH]c2ccccc12	20.6% (inactive)
O=S(=O)(O)c1cccc2ccc(O)cc12	-36.8% (inactive)
COC(=O)CCCC(Sc1ccccc1)C(=O)OC (stereo unspecified)	-7.4% (inactive)
Cc1cccc(NC(=S)Nc2ccc(-c3ccc(NC(=S)Nc4cccc(C)c4)cc3)cc2)c1	0.15% (inactive)
O=c1[nH]c(=O)c2[nH]cnc2[nH]1	2.55% (inactive)
COc1cc(N=Nc2ccc(N)nc2N)c(OC)cc1N=Nc1ccc([N+](=O)[O-])cc1	21.6% (inactive)
Nc1ccc2ncc(NCc3ccc(F)cc3)nc2c1	18.1% (inactive)
CCOCCOC(=O)C(C)OC(=O)/C(=C/C(=O)O)CCOCC (stereo unspecified)	-0.2% (inactive)
CCCCNC(=O)C1C(=O)N(CCCC)C(=O)/C1=N\N (stereo unspecified)	56.3% (inactive)
N#Cc1c(C(F)(F)F)cc(-c2cccs2)nc1SC(C(=O)Nc1c(F)cccc1F)c1ccccc1 (stereo unspecified)	20.2% (inactive)
